# measuredOn: recombinant MARK4 (Homo sapiens)
# Construct: made in house; host or cells: bacterial cells (Luria-Bertani broth, IPTG induction)
# Sequence (Q96L34 whole entry): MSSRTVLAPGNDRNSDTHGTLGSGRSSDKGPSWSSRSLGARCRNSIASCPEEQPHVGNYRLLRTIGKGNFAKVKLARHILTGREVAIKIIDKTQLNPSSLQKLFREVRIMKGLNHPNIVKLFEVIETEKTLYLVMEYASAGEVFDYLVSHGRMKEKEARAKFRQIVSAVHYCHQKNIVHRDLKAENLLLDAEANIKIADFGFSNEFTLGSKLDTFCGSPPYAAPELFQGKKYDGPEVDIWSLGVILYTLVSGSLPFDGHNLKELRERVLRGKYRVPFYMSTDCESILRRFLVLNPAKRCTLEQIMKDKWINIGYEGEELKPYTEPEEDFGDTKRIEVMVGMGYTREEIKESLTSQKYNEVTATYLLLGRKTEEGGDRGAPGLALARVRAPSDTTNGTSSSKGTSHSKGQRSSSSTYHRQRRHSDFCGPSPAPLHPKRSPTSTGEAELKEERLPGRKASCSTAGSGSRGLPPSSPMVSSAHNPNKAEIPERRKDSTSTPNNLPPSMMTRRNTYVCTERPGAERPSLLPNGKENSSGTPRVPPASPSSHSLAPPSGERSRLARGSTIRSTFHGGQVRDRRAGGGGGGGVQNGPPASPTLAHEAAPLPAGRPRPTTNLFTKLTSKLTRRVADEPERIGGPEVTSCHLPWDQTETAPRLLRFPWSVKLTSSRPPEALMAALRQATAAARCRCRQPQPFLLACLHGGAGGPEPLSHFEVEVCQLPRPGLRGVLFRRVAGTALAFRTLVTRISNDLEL
# protocol: ATPase enzyme inhibition assay (Malachite Green)
# Assay type: biochemical
# condition: ATPase inhibition, 20 µM ATP; read-out: IC50 against MARK4
# Protocol: To evaluate the inhibition activity of synthesized acridone derivatives against recombinant MARK4, ATPase enzyme inhibition assay was performed (Table S3). […] Enzyme activity of MARK4 was evaluated with the help of standard Malachite Green (Biomol Green reagent, Enzo Life Sciences) microtitre-plate assay as described earlier. […] Reaction was terminated by the adding 100 µl of Biomol Green reagent and absorbance of final reaction products was recorded at 620 nm in a multiplate ELSIA reader (BioRad). […]
assayReadout: IC50 (µM)

>>> quantitativereadout("COc1ccccc1NC(=O)Cn1c2ccccc2c(=O)c2cc(C)ccc21")
12.1
>>> quantitativereadout("COC(=O)Cn1c2ccccc2c(=O)c2cc(C)ccc21")
14.1

---

Form field: melting point (one value per entry).
assayReadout: melting point

>>> result("COc1ccc(NC(=O)Cn2c3ccccc3c(=O)c3cc(C)ccc32)cc1 [Compound 7g]")
"282 to 286 °C"
>>> result("Cc1ccc2c(c1)c(=O)c1ccccc1n2CC(=O)Nc1ccccc1 [Compound 7e]")
"290 to 293 °C"
>>> result("CC(=O)c1ccc(NC(=O)Cn2c3ccccc3c(=O)c3cc(C)ccc32)cc1 [Compound 7j]")
"306 to 309 °C"
>>> result("Cc1ccc2c(c1)c(=O)c1ccccc1n2CC(=O)N(C)Cc1ccccc1 [Compound 7c]")
"131 to 141 °C"

---

# measuredOn: recombinant MARK4 (Homo sapiens)
# Construct: made in house; host or cells: bacterial cells (Luria-Bertani broth, IPTG induction)
# protocol: Fluorescence binding (quenching, modified Stern-Volmer)
# condition: Table S3; fluorescence binding; read-out: Binding affinity (Ka) (converted)
# Experimental: To determine the binding affinities of the synthesized acridones with MARK4, we used fluorescence emission spectra measurements. Protein sample was excited at 280 nm and emission was measured in 300–400 nm range with increasing concentrations of each acridone derivative (0–100 µM). […] Figure 3 Fluorescence binding studies of compound 5, 7b, 7d, 7f and 7h with MARK4. (A) Fluorescence emission spectra of MARK4 (10 µM) with increasing concentrations of the respective compound (5, 7b, 7d, 7f and 7h). […]
Reported Kd values for a set of molecules
assayReadout: Kd (µM)

>>> quantitativereadout("Cc1ccc2c(c1)c(=O)c1ccccc1n2CC(=O)NCc1ccccc1")
1
>>> quantitativereadout("Cc1ccc(NC(=O)Cn2c3ccccc3c(=O)c3cc(C)ccc32)cc1")
0.526
>>> quantitativereadout("COc1ccccc1NC(=O)Cn1c2ccccc2c(=O)c2cc(C)ccc21")
3.23
>>> quantitativereadout("COc1ccc(NC(=O)Cn2c3ccccc3c(=O)c3cc(C)ccc32)cc1")
158
>>> quantitativereadout("Cc1ccc2c(c1)c(=O)c1ccccc1n2CC(=O)Nc1ccccc1")
1580

---

# Tested on: HepG2 cells
# protocol: MTT cell viability assay, HepG2
# Type: cell-based
# condition: Homo sapiens, Table S2
The entries below come with measured IC50 values attached.
assayReadout: IC50 (µM)

>>> quantitativereadout("Cc1ccc2c(c1)c(=O)c1ccccc1n2CC(=O)NCc1ccccc1 [Compound 7b]")
13.6
>>> quantitativereadout("CC(=O)c1ccc(NC(=O)Cn2c3ccccc3c(=O)c3cc(C)ccc32)cc1 [Compound 7j]")
24.4
>>> quantitativereadout("COC(=O)Cn1c2ccccc2c(=O)c2cc(C)ccc21 [Compound 5]")
16.4
>>> quantitativereadout("COc1ccccc1NC(=O)Cn1c2ccccc2c(=O)c2cc(C)ccc21 [Compound 7h]")
19
>>> quantitativereadout("Cc1ccc(NC(=O)Cn2c3ccccc3c(=O)c3cc(C)ccc32)cc1 [Compound 7f]")
15.2
>>> quantitativereadout("COc1ccc(CNC(=O)Cn2c3ccccc3c(=O)c3cc(C)ccc32)cc1 [Compound 7d]")
15.1
>>> quantitativereadout("COc1ccc(NC(=O)Cn2c3ccccc3c(=O)c3cc(C)ccc32)cc1 [Compound 7g]")
21.2
>>> quantitativereadout("Cc1ccc2c(c1)c(=O)c1ccccc1n2CC(=O)N(C)Cc1ccccc1 [Compound 7c]")
19.4
>>> quantitativereadout("Cc1ccc2c(c1)c(=O)c1ccccc1n2CC(=O)N1CCOCC1 [Compound 7a]")
24.3
>>> quantitativereadout("COC(=O)c1ccc(NC(=O)Cn2c3ccccc3c(=O)c3cc(C)ccc32)cc1 [Compound 7i]")
25.1
>>> quantitativereadout("Cc1ccc2c(c1)c(=O)c1ccccc1n2CC(=O)Nc1ccccc1 [Compound 7e]")
23.8

The measurements presented in this section are drawn from paper PMC6368574.
